- Tested on: LOC_OS06G22820-cb001
- Sequence (whole entry): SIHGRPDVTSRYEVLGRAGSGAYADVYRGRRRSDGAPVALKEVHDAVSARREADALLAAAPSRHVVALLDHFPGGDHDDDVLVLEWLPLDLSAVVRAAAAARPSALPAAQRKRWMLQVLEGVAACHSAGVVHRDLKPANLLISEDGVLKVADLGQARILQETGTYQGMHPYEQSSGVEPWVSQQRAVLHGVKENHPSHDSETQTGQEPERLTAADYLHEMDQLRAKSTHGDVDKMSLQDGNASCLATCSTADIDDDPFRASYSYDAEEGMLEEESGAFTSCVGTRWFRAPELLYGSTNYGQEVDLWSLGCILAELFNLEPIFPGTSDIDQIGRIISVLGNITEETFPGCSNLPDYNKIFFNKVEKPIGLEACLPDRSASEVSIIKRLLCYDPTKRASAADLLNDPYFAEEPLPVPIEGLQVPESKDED
- measurement.protocol: thermal shift delta Tm vs DMSO control; higher = stronger stabilization (binding);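 further: purified Escherichia coli-expressed rice kinase domain construct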
- particulars: 12.5 µM; protein concentration 2 µM
thermal shift delta Tm reference
Report only the number, with the unit °C understood.

>>> reported_value("Cc1nc(Nc2n[nH]c3c2CN(C(=O)N[C@H](CN(C)C)c2ccccc2)C3(C)C)c2sccc2n1")
2
>>> reported_value("CN1CCN(c2ccc(Nc3cc(-c4cccc(-n5ccc6cc(C7CC7)cc(F)c6c5=O)c4CO)cn(C)c3=O)nc2)CC1")
0.59
>>> reported_value("Cc1ncc(CCCN(C)C)cc1Nc1ncc2c(n1)-c1ccc(C(F)(F)F)cc1NC(=S)C2")
0.79

Problem: Name the reported thermal shift delta Tm value associated with the molecule `COc1ccc(C(=O)Nc2sc3c(c2C(N)=O)CCCC3)cc1OC`
Result: 0.46

====

- Tested on: LOC_OS05G30820-cb001
- measurement.protocol: thermal shift delta Tm vs DMSO control; higher = stronger stabilization (binding)
- particulars: 12.5 µM; protein concentration 2 µM
assay.metric: thermal shift delta Tm (°C)
Report only the number, with the unit °C understood.

>>> reported_value("COc1cc(N2CCN(C)CC2)ccc1Nc1ncc2c(n1)N(C)c1ccccc1C(=O)N2")
0.51

Problem: Name the reported thermal shift delta Tm value associated with the compound `COc1ccc(C(=O)Nc2sc3c(c2C(N)=O)CCCC3)cc1OC`
Result: 0.5

Problem: Same for `COc1ccc(/C=C/C(=O)C2(C(=O)/C=C/c3ccc(OC)c(OC)c3)CCCCC2)cc1OC`
Result: 0.75

Problem: Same for `COc1cc2ncnc(Nc3ccc(Cl)cc3F)c2cc1OC`
Result: 0.51

Problem: Same for `C=CC(=O)N1CCN(CCCn2c(=O)c(-c3c(Cl)c(OC)cc(OC)c3Cl)cc3cnc(NC)nc32)CC1`
Result: 0.06

====

- System: LOC_OS01G67340-cb003
- measurement.protocol: thermal shift delta Tm vs DMSO control; higher = stronger stabilization (binding)
- particulars: 12.5 µM; protein concentration 2 µM
assay.metric: thermal shift delta Tm (°C)
Report only the number, with the unit °C understood.

Check out these entries, answers already filled in.
>>> reported_value("Cc1ccc(Nc2nccc(N(C)c3ccc4c(C)n(C)nc4c3)n2)cc1S(N)(=O)=O")
0.74
>>> reported_value("CCCNC(=O)Nc1ccc(Oc2ncnc3cc(OC)c(OC)cc23)cc1Cl")
-0.13
>>> reported_value("Cc1[nH]c(/C=C2\\C(=O)Nc3ccc(S(=O)(=O)Cc4c(Cl)cccc4Cl)cc32)c(C)c1C(=O)N1CCC[C@@H]1CN1CCCC1")
0.73
>>> reported_value("COc1cc2ccc(=O)oc2cc1O")
-0.05
>>> reported_value("CS(=O)(=O)c1ccc(-c2cnc(N)c(C(=O)Nc3ccccc3)n2)cc1")
0.52

Problem: Name the reported thermal shift delta Tm value associated with the compound `CNCc1ccc(-c2cc(-c3nc(-c4ccc(S(=O)(=O)C(C)C)cc4)cnc3N)on2)cc1`
Result: 0.06

Problem: Same for `Cn1cc(/C=C2\C(=O)Nc3cccnc32)c2ccccc21`
Result: 2.54

====

- Test system: LOC_OS01G39600-cb002
- measurement.protocol: thermal shift delta Tm vs DMSO control; higher = stronger stabilization (binding)
- particulars: 12.5 µM; protein concentration 2 µM
thermal shift delta Tm reference
Report only the number, with the unit °C understood.

Check out these entries, answers already filled in.
>>> reported_value("Cc1cc(NC(=O)c2cccc(NC(=O)/C=C/CN(C)C)c2)ccc1Nc1nccc(-c2cccnc2)n1")
6.45
>>> reported_value("Cc1ccc(NC(=O)Nc2cc(C(F)(F)F)ccc2F)cc1Nc1ccc2c(c1)NC(=O)/C2=C\\c1ccc[nH]1")
2.94
>>> reported_value("COc1cc2nccc(Oc3ccc(NC(=O)NC4CC4)c(Cl)c3)c2cc1C(N)=O [Lenvatinib (E7080)]")
-0.02

Problem: Name the reported thermal shift delta Tm value associated with the compound `Oc1ccc(Nc2nc(-c3ccc(Cl)cc3)cs2)cc1`
Result: 4.96

====

- System: LOC_OS01G52050-cb004
- Sequence (as listed by the source): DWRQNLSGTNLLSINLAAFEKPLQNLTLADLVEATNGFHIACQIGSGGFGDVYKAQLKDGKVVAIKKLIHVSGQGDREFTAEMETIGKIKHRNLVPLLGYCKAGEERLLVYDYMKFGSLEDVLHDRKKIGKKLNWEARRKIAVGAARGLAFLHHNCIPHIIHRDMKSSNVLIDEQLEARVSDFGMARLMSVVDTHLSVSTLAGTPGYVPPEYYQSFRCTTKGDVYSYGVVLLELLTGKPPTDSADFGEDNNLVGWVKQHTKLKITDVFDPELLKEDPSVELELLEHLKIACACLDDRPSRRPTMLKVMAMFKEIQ
- measurement.protocol: thermal shift delta Tm vs DMSO control; higher = stronger stabilization (binding)
- particulars: 12.5 µM; protein concentration 2 µM
thermal shift delta Tm reference
Report only the number, with the unit °C understood.

Check out these entries, answers already filled in.
>>> reported_value("CN1CCN(S(=O)(=O)c2ccc(-c3cnc(N)c(C(=O)Nc4cccnc4)n3)cc2)CC1")
1.17
>>> reported_value("O=C(NOCC1CC1)c1ccc(F)c(F)c1Nc1ccc(I)cc1Cl")
2.25
>>> reported_value("COc1cc(F)c(F)c(Nc2ccc(I)cc2F)c1NS(=O)(=O)C1(C[C@H](O)CO)CC1 [Refametinib (RDEA119, Bay 86-9766)]")
1.46

Continue with the compound presented below.
Problem: Name the reported thermal shift delta Tm value associated with the compound `Cn1c(Nc2ccc(C(F)(F)F)cc2)nc2cc(Oc3ccnc(-c4ncc(C(F)(F)F)[nH]4)c3)ccc21`
Result: 6.02

====

- Tested on: LOC_OS04G38480-cb003
- Sequence (as listed by the source): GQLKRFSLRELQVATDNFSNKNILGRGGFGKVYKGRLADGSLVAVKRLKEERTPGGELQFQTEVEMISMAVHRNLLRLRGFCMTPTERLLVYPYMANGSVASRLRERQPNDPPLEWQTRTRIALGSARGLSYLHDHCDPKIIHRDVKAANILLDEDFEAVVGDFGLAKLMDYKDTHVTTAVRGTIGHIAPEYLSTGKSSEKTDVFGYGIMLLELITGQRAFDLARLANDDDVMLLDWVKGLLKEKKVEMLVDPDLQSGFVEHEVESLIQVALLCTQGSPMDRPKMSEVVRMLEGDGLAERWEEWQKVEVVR
- measurement.protocol: thermal shift delta Tm vs DMSO control; higher = stronger stabilization (binding)
- particulars: 12.5 µM; protein concentration 2 µM
assay.metric: thermal shift delta Tm (°C)
Report only the number, with the unit °C understood.

Check out these entries, answers already filled in.
>>> reported_value("O=S(=O)(c1cccc2c(I)cccc12)N1CCCNCC1")
2.17
>>> reported_value("N#Cc1cccc(-c2c[nH]c3ncnc(N4CCOCC4)c23)c1")
1.08
>>> reported_value("COc1nccnc1NS(=O)(=O)c1ccc(NC(=O)/C=C/c2ccc([N+](=O)[O-])s2)cc1 [Necrosulfonamide]")
0.24
>>> reported_value("N#CC[C@H](C1CCCC1)n1cc(-c2ncnc3[nH]ccc23)cn1")
1.14
>>> reported_value("O=C(NCc1ccccc1)c1csc(Nc2ccncn2)n1")
0.41

Continue with the compound presented below.
Problem: Request - read-out thermal shift delta Tm | tested on LOC_OS04G38480-cb003 | compound `Cc1nc(-c2cn3c(n2)-c2ccc(-c4cnn(C(C)(C)C(N)=O)c4)cc2OCC3)n(C(C)C)n1`
Result: 0.83

====

thermal shift delta Tm reference
- System: LOC_OS02G54510-cb004
- measurement.protocol: thermal shift delta Tm vs DMSO control; higher = stronger stabilization (binding)
- particulars: 12.5 µM; protein concentration 2 µM
Report only the number, with the unit °C understood.

Check out these entries, answers already filled in.
>>> reported_value("Cc1ccc(S(=O)(=O)/C=C/C#N)cc1")
1.4
>>> reported_value("N#CCNC(=O)c1ccc(-c2ccnc(Nc3ccc(N4CCOCC4)cc3)n2)cc1 [Momelotinib (CYT387)]")
1.25

Problem: Name the reported thermal shift delta Tm value associated with the compound `CN(C)Cc1cccc(N/C(=C2\C(=O)Nc3cc(C(N)=O)ccc32)c2ccccc2)c1`
Result: 0.37

====

- System: LOC_OS03G50450-cb001
- measurement.protocol: thermal shift delta Tm vs DMSO control; higher = stronger stabilization (binding)
- particulars: 12.5 µM; protein concentration 2 µM
Classification field. Basis: thermal shift delta Tm. Definitions: Low = under -0.05 °C, Mid = from -0.05 °C up to 0.2 °C, High = 0.2 °C and over

Solved entries:
>>> classification("O=C(Nc1nccs1)C(c1cc(F)ccc1O)N1Cc2ccccc2C1=O (stereo unspecified)")
"Low"
>>> classification("Cc1ccc(C(=O)Nc2ccc(Oc3cc4cnn(C)c4cc3-c3cn[nH]c3)c(F)c2)c(=O)n1-c1ccc(F)cc1")
"High"
>>> classification("C[C@@]1(C(=O)Nc2ccc(F)nc2)CCCN1c1nc(Nc2cc(C3CC3)n[nH]2)c2cccn2n1")
"Low"

Next compound, please.
Problem: Hello team, could you let me know which band the following compound falls into: `Cn1cc(-c2ccc3ncc(Cc4ccc5ncccc5c4)n3n2)cn1`
Result: Mid

====

- System: LOC_OS02G14120-cb001
- measurement.protocol: thermal shift delta Tm vs DMSO control; higher = stronger stabilization (binding)
- particulars: 12.5 µM; protein concentration 2 µM
thermal shift delta Tm reference
Report only the number, with the unit °C understood.

Check out these entries, answers already filled in.
>>> reported_value("O=c1cc(-c2cccc3c2Sc2ccccc2S3)oc(N2CCOCC2)c1")
0.45
>>> reported_value("CCN1C(=O)CNc2ncc(-c3ccc(-c4nc[nH]n4)nc3C)nc21")
-0.7
>>> reported_value("COc1cc(Nc2ncc(F)c(Nc3ccc4c(n3)NC(=O)C(C)(C)O4)n2)cc(OC)c1OC")
12.4
>>> reported_value("CNc1nc(Nc2cn(C(C)(C)C#N)nc2C)ncc1C(F)(F)F")
0.65

Problem: Request - read-out thermal shift delta Tm | tested on LOC_OS02G14120-cb001 | molecule `Nc1ncnc2n[nH]c(Nc3ccc(F)cc3)c12`
Result: 3.5

Problem: Same for `CCS(=O)(=O)c1cccc(-c2cc(C(=O)NC3CCN(C)CC3)c(C)c3[nH]c4ncc(C)cc4c23)c1`
Result: 10.6

Problem: Same for `CCC(=O)Nc1cccc(Oc2nc(Nc3ccc(N4CCN(C)CC4)cc3OC)ncc2Cl)c1`
Result: 0.22
